test: chemical genetic growth profiling, strain panel (AID 1159580);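 also: tested at 20 µM; growth read once vehicle control cultures reached saturation at 30 °C; 1 = growth at the plate median or of vehicle wells; lower values mean less growth of the strain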; conditions: S. cerevisiae deletion strains, growth OD, locus YDL214C, strain PRR2, active compounds read low
Out of some 5,500 compounds screened, about 2,000 (36%) were called active. Another 18% or so got no clear call; they are omitted. The list shows a part of the results.
Hi! Just check whether normalized growth is below 0.9. Below gives 1 (yes), equal or above gives 0 (no).

Consider the worked cases shown below.
Cc1ccc(S(=O)(=O)NC(=O)Nc2ccc(Sc3ccccc3)nc2Sc2ccccc2)cc1 : 0 (no)
O=[N+]([O-])c1ccc(-c2noc(-c3ccno3)n2)o1 : 1 (yes)

Challenge: normalized growth under 0.9? Item: O=C(NCc1ccc(Cl)c(Cl)c1)c1cccnc1OCC(F)(F)F
Response given: 0 (no)

Challenge: normalized growth under 0.9? Item: N/C(Cn1ccc(C(F)(F)F)n1)=N/OS(=O)(=O)c1cccc(Cl)c1Cl
Response given: 0 (no)

Challenge: normalized growth under 0.9? Item: CCCN(CCC)C(=S)NC(=O)c1cccc([N+](=O)[O-])c1
Response given: 0 (no)
